Measured values drawn from patent US8906897B2 for this set.

system: Candida albicans No. 927; experiment: Antifungal activity, culture growth with pH indicator; assay type: cell-based; design: key: (−) No growth; the indicator is blue; (±) Weak growth; the indicator is yellow, but the precipitate of grown cells looks as a diffuse spot; (+) Strong growth; the indicator is yellow, and the cell precipitate looks as a compact spot; conditions: dilution : 4 of 1 × 10^−4 M
PROPERTY: Test culture growth at various dilutions of the agent

COMPOUND | ENDPOINT RESULT
C=CC1=C(C)c2cc3[n-]c(cc4nc(cc5[n-]c(cc1n2)c(C)c5CCC(=O)N[C@@H](CCC(=O)N[C@@H](CCCNC(=N)N)C(=O)OC)C(=O)N[C@@H](CCCNC(=N)N)C(=O)OC)C(CCC(=O)N[C@@H](CCC(=O)N[C@@H](CCCNC(=N)N)C(=O)OC)C(=O)N[C@@H](CCCNC(=N)N)C(=O)OC)=C4C)c(C)c3C=C.[Cl-].[Fe+3] [Compound XVIII] | −
C=CC1=C(C)c2cc3[n-]c(cc4nc(cc5[n-]c(cc1n2)c(C)c5CCC(=O)N[C@@H](CO)C(=O)OC)C(CCC(=O)N[C@@H](CO)C(=O)OC)=C4C)c(C)c3C=C.[Cl-].[Fe+3] [VIII] | ±
C=CC1=C(C)c2cc3[n-]c(cc4[n-]c(cc5nc(cc1n2)C(C)=C5C=C)c(C)c4CCC(=O)O)c(CCC(=O)O)c3C.[Cl-].[Fe+3] [Hem, hemin] | +

----------
system: Enterococcus faecium No. 569; experiment: Specific activity against resistant bacterial strains; type: cell-based; settings: Ent. faecium 569; 24 h, 36° C.
PROPERTY: MICs for hemin derivatives against Gr+ strains

COMPOUND | ENDPOINT RESULT
C=CC1=C(C)c2cc3[n-]c(cc4nc(cc5[n-]c(cc1n2)c(C)c5CCC(=O)N[C@@H](CCCNC(=N)N)C(=O)N[C@@H](CCCNC(=N)N)C(=O)OC)C(CCC(=O)N[C@@H](CCCNC(=N)N)C(=O)N[C@@H](CCCNC(=N)N)C(=O)OC)=C4C)c(C)c3C=C.[Cl-].[Fe+3] [Compound XXI] | >50 µM

Query compound follows.
MICs for hemin derivatives against Gr+ strains lookup needed for C=CC1=C(C)c2cc3[n-]c(cc4[n-]c(cc5nc(cc1n2)C(C)=C5C=C)c(C)c4CCC(=O)O)c(CCC(=O)O)c3C.[Cl-].[Fe+3] [Hem, hemin] , thanks.
>10 µM

----------
system: human leukocytes; experiment: Cytotoxic activity against human leukocytes; settings: 1 mM, 3 h incubation
PROPERTY: Death of leukocytes in the presence of 1 mM of compound
State the value, then name its unit.

Reference set, count: 2
MOLECULAR STRING | ENDPOINT RESULT
C=CC1=C(C)c2cc3[n-]c(cc4nc(cc5[n-]c(cc1n2)c(C)c5CCC(=O)NCCO)C(CCC(=O)NCCO)=C4C)c(C)c3C=C.[Cl-].[Fe+3] | 17.5 ± 0.7%
C=CC1=C(C)c2cc3[n-]c(cc4nc(cc5[n-]c(cc1n2)c(C)c5CCC(=O)NCCC(=O)NCCc1c[nH]cn1)C(CCC(=O)NCCC(=O)NCCc1c[nH]cn1)=C4C)c(C)c3C=C.[Cl-].[Fe+3] | 3.1 ± 0.3%

Turning to the following molecule.
Query for human leukocytes: what Death of leukocytes in the presence of 1 mM of compound does the record show for `C=CC1=C(C)c2cc3[n-]c(cc4[n-]c(cc5nc(cc1n2)C(C)=C5C=C)c(C)c4CCC(=O)O)c(CCC(=O)O)c3C.[Cl-].[Fe+3]` ?
40 ± 2%
